Tested on: Pseudomonas aeruginosa PAM 1723 strain highly expressing the drug efflux pump
Test: Effect of combinational use with an antimicrobial agent on multidrug resistant Pseudomonas aeruginosa (broth culture, transmittance and turbidity readout)
Type: cell-based
Details: minimum concentration of compound required to enhance antibacterial activity, azthreonam (AZT) at 1/8 or less of the minimum inhibitory concentration, combinational use for 18 hours, MHB, 1 × 10^6 CFU/ml
experimental-readout: Combination with AZT (µg/mL)
One number for each entry, in µg/mL.

Worked examples, 5 molecules total:
* CC(C)c1nsc(COc2cc(NC(=O)Cc3ccccc3C(=O)O)c(F)cc2F)n1 | 1.25
* CC(C)c1nc(/C=C/c2cccc(NC(=O)Cc3ccccc3C(=O)O)c2)sc1N | 20
* COC(=O)c1cc(NC(=O)Cc2ccccc2C(=O)O)cc(OCc2nc(C(C)C)cs2)c1 | 160
* O=C(Cc1ccccc1C(=O)O)Nc1cccc(CCc2nc(-c3ccccc3)cs2)c1 | 2.5
* O=C(Cc1ccccc1C(=O)O)Nc1cccc(/C=C/c2nc3cccnc3s2)c1 | 5

For each listed entry, give its Combination with AZT.
1. O=C(Cc1ccccc1C(=O)O)Nc1cccc(/C=C/c2nc3ccccc3o2)c1
2. O=C(Cc1ccccc1C(=O)O)Nc1cccc(/C=C/c2nc(-c3ccncc3)cs2)c1
3. CC(C)c1csc(/C=C/c2cccc(NC(=O)Cc3ccccc3C(=O)O)n2)n1
4. CC(C)c1csc(/C=C/c2cncc(NC(=O)[C@H]3OC(C)(C)O[C@@H]3C(=O)O)c2)n1
5. CC(C)c1csc(/C=C/c2cncc(NC(=O)Cc3ccccc3C(=O)O)c2)n1

[5, 2.5, 20, 40, 1.25]
